- Tested on: recombinant BRD4 BD2 (Homo sapiens)
- Construct: for recombinant BRD4 BD1 and BRD4 BD2 proteins
- Procedure text: Competitive fluorescence-polarization (FP) binding assay, BRD4 BD2
- Condition description: FP competitive binding, BRD4 BD2; read-out: Binding affinities (FP) BRD4BD2 Ki
Reported metric: Ki (µM)
Give bare numbers, in µM.

Some compounds with recorded Ki:
The reported value for COc1cc2c(cc1-c1c(C)noc1C)[nH]c1nc(C)nc(Nc3cc(C4CC4)nn3C[C@H](O)CO)c12 in terms of Ki is 0.0057

The reported value for COc1cc2c([nH]c3nc(C)nc(Nc4cc(C5CC5)nn4C)c32)c(F)c1-c1c(C)noc1C in terms of Ki is 0.0043

The reported value for COc1cc2c(cc1-c1c(C)noc1C)[nH]c1nc(N)nc(Nc3cc(C4CC4)nn3C3CC3)c12 in terms of Ki is 0.001

// input: 2 compounds below; output: Ki for each
1. COc1cc2c([nH]c3ccnc(Nc4cc(C5CC5)nn4C)c32)c(F)c1-c1c(C)noc1C
2. COc1nc2c(cc1-c1c(C)noc1C)[nH]c1nc(C)nc(Nc3cc(C(C)(C)C)nn3C)c12

Reply:
1: 0.013; 2: 0.209

// input: 2 compounds below; output: Ki for each
1. COc1c(-c2c(C)noc2C)cc2[nH]c3nc(C)nc(Nc4cc(C5CC5)nn4C)c3c2c1F
2. COc1cc2c([nH]c3nc(C)nc(N(C)c4cc(C5CC5)nn4C)c32)c(F)c1-c1c(C)noc1C

Reply:
1: 0.342; 2: 0.0053

// input: 2 compounds below; output: Ki for each
1. COc1cc2c(cc1-c1c(C)noc1C)[nH]c1nc(C)nc(Nc3cc(C4CC4)nn3CC3COCCO3)c12 (stereo not drawn)
2. COc1cc2c(nc1-c1c(C)noc1C)[nH]c1nc(C)nc(Nc3cc(C4CC4)nn3C)c12

Reply:
0.001
0.094
